Data provenance is ChEMBL document CHEMBL4689842.

What Total Cell Count was measured for each of the following?
# Tested on: U2OS
# Experiment: Multiplex assay against U2OS
# Assay type: toxicity, cell-based
# Recorded conditions: human, 12 h, 1 µM, compound concentration 1 uM, replicate 1
Answers are plain numbers.

>  <Compound>
NC(=O)c1cccc(-c2cc(Nc3ccc(OC(F)(F)F)cc3)ncn2)c1

>  <Total Cell Count>
640

$$$$
>  <Compound>
O=C1NC(=O)C(c2cnc3ccccn23)=C1c1cn2c3c(cc(F)cc13)CN(C(=O)N1CCCCC1)CC2 [LY-2090314]

>  <Total Cell Count>
121

$$$$

Could you now look at the following compound, please?
Request: What value of Total Cell Count has been reported for the following compound? "COc1ccc(S(=O)(=O)N(CCO)c2ccccc2CN(C)C/C=C/c2ccc(Cl)cc2)cc1.O=P(O)(O)O"
Result: 95
